measuredTarget: c-Src SH2;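 also: peptide library displayed on the E. coli surface as eCPX fusions, selected cells deep-sequenced, score is each peptide's frequency after selection divided by its frequency in the input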
assayComment: SH2 binding enrichment of the phosphorylated peptide, bacterial display (enrichment ratio); higher = better substrate or ligand; peptides without Tyr show the background
readoutName: SH2 binding enrichment

Reference set, count: 4
| constructSequence | SH2 binding enrichment |
| --- | --- |
| TVFENYVADIE [RHOA_Y42] | 0.541 |
| LITTLYISFLG [KCNQ1_Y267_G269S] | 0.838 |
| IPGRYYETGSI [PAX2_Y73_L69P] | 1.67 |
| RGDIFYTSKLW [AKR1C3_Y81_E77G] | 0.55 |

A: SSSGGYGGGYG [KRT19_Y61_A60G]
B: GHEYIYVDRMQ [PDGFRB_Y581_P584R]
C: IRGNMYYENSY [EGFR_Y112]
q: // ascending sort on recorded SH2 binding enrichment Provide the ranking by listing each label in its place in the requested order.
a: A, B, C
(A: 0.462, B: 0.746, C: 4.19)

1: GTHCHYKAPTV [FZD9_Y569]
2: HLTLVYGGIFL [FBP1_Y259_R255L]
3: LIGRRYDDPEV [HSPA9_Y128]
q: // ascending sort on recorded SH2 binding enrichment Provide the ranking by listing each label in its place in the requested order.
a: 2, 3, 1
(2: 0.544, 3: 0.822, 1: 1.3)

====

Some sequences, each annotated with its measured phosphorylation enrichment.
measuredTarget: Fes (UniProt P07332)
Sequence (P07332 whole entry, looked up): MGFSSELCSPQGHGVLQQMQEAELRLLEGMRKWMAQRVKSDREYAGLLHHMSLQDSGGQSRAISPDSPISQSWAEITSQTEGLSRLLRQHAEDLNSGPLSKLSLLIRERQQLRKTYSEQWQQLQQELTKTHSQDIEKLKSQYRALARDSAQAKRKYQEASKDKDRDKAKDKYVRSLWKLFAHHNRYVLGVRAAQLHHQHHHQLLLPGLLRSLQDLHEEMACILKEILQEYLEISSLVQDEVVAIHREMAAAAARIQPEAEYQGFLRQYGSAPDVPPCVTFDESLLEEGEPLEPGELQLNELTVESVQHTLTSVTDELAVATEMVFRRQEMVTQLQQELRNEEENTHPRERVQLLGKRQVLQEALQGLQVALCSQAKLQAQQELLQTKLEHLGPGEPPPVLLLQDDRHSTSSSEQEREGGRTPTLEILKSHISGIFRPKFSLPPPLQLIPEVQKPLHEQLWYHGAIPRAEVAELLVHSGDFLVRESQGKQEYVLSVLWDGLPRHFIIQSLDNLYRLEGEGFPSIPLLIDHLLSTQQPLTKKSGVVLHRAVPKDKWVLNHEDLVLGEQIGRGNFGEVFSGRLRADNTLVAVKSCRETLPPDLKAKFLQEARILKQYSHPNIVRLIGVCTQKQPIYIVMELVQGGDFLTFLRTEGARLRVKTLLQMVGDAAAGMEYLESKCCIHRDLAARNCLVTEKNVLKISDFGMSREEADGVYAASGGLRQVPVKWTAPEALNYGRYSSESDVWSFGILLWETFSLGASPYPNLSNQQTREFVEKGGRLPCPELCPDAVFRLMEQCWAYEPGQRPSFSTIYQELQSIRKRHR
assayComment: phosphorylation enrichment, bacterial display (enrichment ratio); higher = better substrate or ligand; peptides without Tyr show the background
Just the number, please.

| constructSequence | phosphorylation enrichment |
| --- | --- |
| RESSGYLRLAF [MEP1A_Y481] | 1.8 |
| VEDQYYCVDCY [FHL1_Y208] | 1.48 |
| EFISENCGEII [EZH2_Y641_Y641N] | 1.1 |
| YDEYRYRSVIK [CFTR_Y517] | 0.973 |
| SNNYIYKTLGV [FAM83B_Y639] | 0.58 |

q: I am curious: what phosphorylation enrichment value has been reported for KILGRYYETGS [PAX2_Y72] ?
a: 0.758

q: I am curious: what phosphorylation enrichment value has been reported for KNNDGYTDFAE [MCFD2_Y135_I136T_YF] ?
a: 1.07

====

measuredTarget: MERTK (UniProt Q12866)
Sequence (Q12866 whole entry, looked up): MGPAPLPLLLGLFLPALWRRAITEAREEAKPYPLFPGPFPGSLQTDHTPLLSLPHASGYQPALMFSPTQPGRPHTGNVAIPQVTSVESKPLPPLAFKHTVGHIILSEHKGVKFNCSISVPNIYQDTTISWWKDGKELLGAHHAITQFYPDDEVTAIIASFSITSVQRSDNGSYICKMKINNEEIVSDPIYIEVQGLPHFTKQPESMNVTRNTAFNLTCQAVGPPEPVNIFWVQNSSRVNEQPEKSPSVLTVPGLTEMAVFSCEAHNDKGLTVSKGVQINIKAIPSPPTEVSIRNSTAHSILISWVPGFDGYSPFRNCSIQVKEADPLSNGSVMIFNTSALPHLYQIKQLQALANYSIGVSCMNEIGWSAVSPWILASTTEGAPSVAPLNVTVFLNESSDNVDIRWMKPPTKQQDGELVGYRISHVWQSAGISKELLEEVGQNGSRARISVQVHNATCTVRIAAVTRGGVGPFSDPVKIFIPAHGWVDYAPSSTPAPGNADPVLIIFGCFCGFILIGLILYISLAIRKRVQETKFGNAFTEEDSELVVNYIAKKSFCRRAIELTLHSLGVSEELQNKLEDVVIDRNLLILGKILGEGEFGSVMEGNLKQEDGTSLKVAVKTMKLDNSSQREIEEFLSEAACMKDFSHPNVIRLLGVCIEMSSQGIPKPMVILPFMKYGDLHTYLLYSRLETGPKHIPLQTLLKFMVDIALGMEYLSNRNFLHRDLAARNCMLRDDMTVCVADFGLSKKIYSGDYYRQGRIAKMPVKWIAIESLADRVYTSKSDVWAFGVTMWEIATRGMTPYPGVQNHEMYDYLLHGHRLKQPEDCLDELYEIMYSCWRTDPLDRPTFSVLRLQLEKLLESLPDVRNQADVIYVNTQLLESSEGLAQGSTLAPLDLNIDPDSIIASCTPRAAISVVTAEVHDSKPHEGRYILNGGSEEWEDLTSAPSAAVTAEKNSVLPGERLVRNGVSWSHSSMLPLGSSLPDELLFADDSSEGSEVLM
assayComment: phosphorylation enrichment, bacterial display (enrichment ratio); higher = better substrate or ligand; peptides without Tyr show the background
readoutName: phosphorylation enrichment
Just the number, please.

q: Hello, I am looking for reported phosphorylation enrichment with MERTK (UniProt Q12866) for QRKPSYNQLPS [BRCA2_Y71_A75P] . Could you help?
a: 0.567

q: Hello, I am looking for reported phosphorylation enrichment with MERTK (UniProt Q12866) for KTDKKYLMIKE [BAG3_Y451_E455K] . Could you help?
a: 0.408

q: Hello, I am looking for reported phosphorylation enrichment with MERTK (UniProt Q12866) for KQVEQYMSFHK [HCN1_Y417] . Could you help?
a: 0.384

====

measuredTarget: FGFR3 (UniProt P22607)
Sequence (P22607 whole entry, looked up): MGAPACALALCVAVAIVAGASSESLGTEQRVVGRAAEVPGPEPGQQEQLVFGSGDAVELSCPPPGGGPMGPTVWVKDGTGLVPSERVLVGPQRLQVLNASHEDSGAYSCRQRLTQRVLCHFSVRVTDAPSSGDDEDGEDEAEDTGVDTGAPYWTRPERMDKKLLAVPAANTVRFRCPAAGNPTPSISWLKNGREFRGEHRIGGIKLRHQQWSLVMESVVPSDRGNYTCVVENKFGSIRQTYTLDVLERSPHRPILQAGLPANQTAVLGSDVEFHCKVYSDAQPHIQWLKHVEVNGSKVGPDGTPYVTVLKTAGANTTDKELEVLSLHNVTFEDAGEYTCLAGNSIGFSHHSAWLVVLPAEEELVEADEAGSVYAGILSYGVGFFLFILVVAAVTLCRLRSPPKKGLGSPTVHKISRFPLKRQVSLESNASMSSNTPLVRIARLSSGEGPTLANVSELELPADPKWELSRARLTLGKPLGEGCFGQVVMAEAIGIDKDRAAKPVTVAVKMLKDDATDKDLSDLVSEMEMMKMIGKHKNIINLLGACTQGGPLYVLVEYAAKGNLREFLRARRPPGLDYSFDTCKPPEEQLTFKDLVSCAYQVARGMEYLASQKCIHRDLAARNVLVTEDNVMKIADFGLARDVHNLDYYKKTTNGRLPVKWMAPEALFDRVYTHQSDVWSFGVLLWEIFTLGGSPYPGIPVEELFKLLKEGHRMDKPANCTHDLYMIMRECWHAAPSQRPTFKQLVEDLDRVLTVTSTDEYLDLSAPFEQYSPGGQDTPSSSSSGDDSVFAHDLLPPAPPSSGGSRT
assayComment: phosphorylation enrichment, bacterial display (enrichment ratio); higher = better substrate or ligand; peptides without Tyr show the background
readoutName: phosphorylation enrichment
Just the number, please.

Reference set, count: 4
| constructSequence | measuredTarget | endpointResult |
| --- | --- | --- |
| KVPELYEIHKE [BCR_Y554] | FGFR3 (UniProt P22607) | 0.817 |
| RASQEYHIVKK [PDZD2_Y557_S552R] | FGFR3 (UniProt P22607) | 0.784 |
| PLQNTYNYNVL [SLC4A1_Y553_K551N] | FGFR3 (UniProt P22607) | 0.545 |
| ERPIRYLNHQL [CEP152_Y268_Q265P] | FGFR3 (UniProt P22607) | 0.424 |

q: I am curious: what phosphorylation enrichment value has been reported for QKMADYSNKLY [PDPR_Y104] ?
a: 0.735

q: I am curious: what phosphorylation enrichment value has been reported for VNKGGYFSVNL [C3orf33_Y164_S160N] ?
a: 0.603

q: I am curious: what phosphorylation enrichment value has been reported for INMKEYCKKDF [NTN1_Y490_K489E_YF] ?
a: 0.743
